Biological target: T1, human CEACAM5 (carcinoembryonic antigen, CEA) on cells (human, UniProt P06731 35-685)
T1 construct: endogenous on MKN45 gastric adenocarcinoma cells; full-length cDNA stably transfected in the CHO-K1 clones; also called huCEACAM5; MKN45 cells
T1 sequence: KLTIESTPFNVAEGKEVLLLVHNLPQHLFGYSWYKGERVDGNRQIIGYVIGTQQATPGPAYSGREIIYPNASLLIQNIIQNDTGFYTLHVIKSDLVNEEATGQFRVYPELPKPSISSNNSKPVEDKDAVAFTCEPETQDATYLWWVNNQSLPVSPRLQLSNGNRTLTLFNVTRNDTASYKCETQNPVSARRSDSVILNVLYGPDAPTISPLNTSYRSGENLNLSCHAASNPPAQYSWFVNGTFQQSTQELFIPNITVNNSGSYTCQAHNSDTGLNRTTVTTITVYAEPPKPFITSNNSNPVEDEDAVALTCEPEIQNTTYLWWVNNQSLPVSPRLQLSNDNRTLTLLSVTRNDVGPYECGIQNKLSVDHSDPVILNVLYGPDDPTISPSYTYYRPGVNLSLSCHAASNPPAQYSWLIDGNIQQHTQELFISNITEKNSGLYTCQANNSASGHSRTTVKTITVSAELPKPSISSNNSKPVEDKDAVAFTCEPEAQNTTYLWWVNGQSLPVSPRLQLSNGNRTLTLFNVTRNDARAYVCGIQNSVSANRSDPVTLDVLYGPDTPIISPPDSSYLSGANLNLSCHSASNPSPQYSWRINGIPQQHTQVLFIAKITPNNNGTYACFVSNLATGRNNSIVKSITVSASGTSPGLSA
Assay: flow cytometry, MKN45 cells
Design: unit not given beside the values
RESULT TYPE: AUC
Response field accepts a number only; no unit should be typed.

P1AE3107 (antibody, IgG1, V domains shown, huIgG1 P329G LALA; also called MFE-H24 / MFE-L27; huMFE23-L27-H24) VH: QVQLVQSGAEVKKPGASVKVSCKASGFNIKDSYMHWVRQAPGQGLEWMGWIDPENGDTEYAPKFQGRVTMTTDTSISTAYMELSRLRSDDTAVYYCNEGTPTGPYYFDYWGQGTLVTVSS VL: EIQMTQSPSSLSASVGDRVTITCRASSSVPYMHWYQQKPGKAPKLLIYSTSNLASGVPSRFSGSGSGTDFTLTISSVQPEDFATYYCQQRSSYPLTFGGGTKLEIK | 91200

# context switch: different binder, same AUC
Task: # AUC lookup, item P1AE3118 (antibody, IgG1, V domains shown, huIgG1 P329G LALA; also called MFE-H25 / MFE-L25) VH: QVQLVQSGAEVKKPGASVKVSCKASGYTFKDSYMHWVRQAPGQGLEWMGWIDPENGDTEYAPKFQGRVTMTTDTSISTAYMELSRLRSDDTAVYYCNEGTPTGPYYFDYWGQGTLVTVSS VL: EIQMTQSPSSLSASVGDRVTITCRASSSVSYMHWYQQKPGKAPKLLIYSTSNLASGVPSRFSGSGSGTDFTLTISSLQPEDFATYYCQQRSSYPLTFGGGTKLEIK
Result: 559
